Source listed as patent US8609644B2.

# Test system: anesthetized guinea-pig
# method: Inotropic effect and lethal dose, slow intravenous infusion (over 90 minutes) in anesthetized guinea-pig
# applied-conditions: maximum dose infused in the survived animals
Structures can show the parent of a compound that is named as a salt.
Provide the reported Maximum dose infused of each item.
One number for each entry, in µmol/kg.

[
  {
    "compound": "C=C1C[C@@H]2[C@H](CC[C@]3(C)C(=O)CC[C@@H]23)[C@@]2(C)CC/C(=N\\OCCN)CC12.Cl (stereo partly shown)",
    "quantity-kind": "Maximum dose infused",
    "result": 3.2
  },
  {
    "compound": "CC12CCC3C(C(O)C(CO)C4CC(=NOCCN)CCC43C)C1CCC2=O (mixture of isomers) [I-ej, hydrochloride]",
    "quantity-kind": "Maximum dose infused",
    "result": 25.0
  },
  {
    "compound": "CNCCCON=C1CC[C@]2(C)[C@H]3CC[C@]4(C)C(=O)CC[C@H]4[C@@H]3C/C(=N\\O)[C@@]2(O)C1 (mixture of isomers) [I-cr, hydrochloride]",
    "quantity-kind": "Maximum dose infused",
    "result": 50.4
  },
  {
    "compound": "CON=C1CC2C3CCC(=O)C3(C)CCC2C2(C)CCC(=NOCCN)CC12 (mixture of isomers) [I-aw, hydrochloride]",
    "quantity-kind": "Maximum dose infused",
    "result": 12.7
  },
  {
    "compound": "CNCCCON=C1CC[C@@]2(C)[C@H](C1)[C@@H](CO)C[C@@H]1[C@@H]2CC[C@]2(C)C(=O)CC[C@@H]12 (mixture of isomers) [I-cl, hydrochloride]",
    "quantity-kind": "Maximum dose infused",
    "result": 42.5
  }
]

Provide the reported Maximum dose infused of each entry below, same order.
1. CC12CCC3C(C(=O)CC4CC(=NOCCN)CCC43C)C1CCC2=O (mixture of isomers)
2. CC12CCC3C(CC(CCO)C4CC(=NOCCN)CCC43C)C1CCC2=O (mixture of isomers) [I-am, hydrochloride]

OUT:
1. 50.4
2. 50.5

====

# Tested on: anesthetized guinea-pig
# method: Inotropic effect and lethal dose, slow intravenous infusion (over 90 minutes) in anesthetized guinea-pig
# applied-conditions: Cavia porcellus, iv, 1.5 h, read-out: EDmax (dose inducing maximum positive inotropic effect)
Counter-ions that a name gives are not always drawn.
Provide the reported ED (max) of each item.
Give bare numbers, in µmol/kg.

Example entries and their recorded answers appear below.
[
  {
    "molecule": "CNCCCON=C1CCC2(C)C(C1)C(NC=O)CC1C3CCC(=O)C3(C)CCC12 (mixture of isomers) [I-co, hydrochloride]",
    "ED (max) / µmol/kg": 2.79
  },
  {
    "molecule": "CON=C1CC2C3CCC(=O)C3(C)CCC2C2(C)CCC(=NOCCN)CC12 (mixture of isomers) [I-aw, hydrochloride]",
    "ED (max) / µmol/kg": 5.77
  },
  {
    "molecule": "CNCCCON=C1CC[C@]2(C)[C@H]3CC[C@]4(C)C(=O)CC[C@H]4[C@@H]3C/C(=N\\O)[C@@]2(O)C1 (mixture of isomers) [I-cr, hydrochloride]",
    "ED (max) / µmol/kg": 11.8
  },
  {
    "molecule": "CC12CCC3C(C(=O)CC4CC(=NOCCN)CCC43C)C1CCC2=O (mixture of isomers) [I-br]",
    "ED (max) / µmol/kg": 13.5
  },
  {
    "molecule": "CC12CCC3C(C(O)C(CO)C4CC(=NOCCN)CCC43C)C1CCC2=O (mixture of isomers) [I-ej, hydrochloride]",
    "ED (max) / µmol/kg": 7.55
  }
]

Please look at the following molecule next.
Entry CC1CC2C3CCC(=O)C3(C)CCC2C2(C)CCC(=NOCCN)CC12 (single isomer, unassigned) [I-ba, hydrochloride] ; assay system anesthetized guinea-pig; ED (max) recorded at 5.78

====

# target-or-system: Na+, K+-ATPase (Canis lupus familiaris)
# method: biochemical
# Parameters: species or system dog
# applied-conditions: read-out: Na+, K+-ATPase Inhibition IC50
Where a name gives a salt, the structure may show the parent alone.
Provide the reported IC50 of each item.
Answers are plain numbers, in µM.

[
  {
    "molecule": "CC(=O)NC[C@H]1C[C@@H]2[C@H](CC[C@]3(C)C(=O)CC[C@@H]23)[C@@]2(C)CCC(=NOCCN)CC12 (stereo partly drawn) [I-bm, hydrochloride]",
    "result-unit": "µM",
    "result": 3.6
  },
  {
    "molecule": "C[C@]12CCC(=NOCCN)CC1C[C@@H](NC=O)[C@@H]1[C@@H]2CC[C@]2(C)C(=O)CC[C@@H]12 (stereo partly drawn) [I-bw, hydrochloride]",
    "result-unit": "µM",
    "result": 6
  },
  {
    "molecule": "C=C1C[C@@H]2[C@H](CC[C@]3(C)C(=O)CC[C@@H]23)[C@@]2(C)CC[C@@H]([S@@+]([O-])CCCN)CC12 (stereo partly drawn) [I-eb, fumarate]",
    "result-unit": "µM",
    "result": 7.2
  },
  {
    "molecule": "C[C@]12CC[C@H]3[C@@H](C/C(=N\\O)[C@@]4(O)CC(=NOCCN)CC[C@]34C)[C@@H]1CCC2=O.O=C(O)/C=C/C(=O)O [I-bo]",
    "result-unit": "µM",
    "result": 0.079
  },
  {
    "molecule": "CC12CCC3C(CC(C(N)=O)C4CC(=NOCCN)CCC43C)C1CCC2=O (mixture of isomers) [I-at]",
    "result-unit": "µM",
    "result": 0.63
  }
]

Entry C[C@]12CCC(=NOCCN)CC1C1(CO1)C[C@@H]1[C@@H]2CC[C@]2(C)C(=O)CC[C@@H]12 (stereo partly drawn) [I-bc, hydrochloride] ; assay system Na+, K+-ATPase (Canis lupus familiaris); IC50 recorded at 0.91

====

# Tested on: anesthetized guinea-pig
# method: Inotropic effect and lethal dose, slow intravenous infusion (over 90 minutes) in anesthetized guinea-pig
# applied-conditions: Cavia porcellus, iv, 1.5 h, read-out: EDmax (dose inducing maximum positive inotropic effect)
Counter-ions that a name gives are not always drawn.
Provide the reported ED (max) of each item.
Answers are plain numbers, in µmol/kg.

Example entries and their recorded answers appear below.
[
  {
    "compound": "CNCCCON=C1CC[C@@]2(C)[C@H](C1)[C@@H](CO)C[C@@H]1[C@@H]2CC[C@]2(C)C(=O)CC[C@@H]12 (mixture of isomers) [I-cl, hydrochloride]",
    "result-unit": "µmol/kg",
    "ED (max)": 8.95
  },
  {
    "compound": "C#C[C@H]1C[C@@H]2[C@H](CC[C@]3(C)C(=O)CC[C@@H]23)[C@@]2(C)CCC(=NOCCN)C[C@H]12 (mixture of isomers) [I-bd, hydrochloride]",
    "result-unit": "µmol/kg",
    "ED (max)": 9.89
  },
  {
    "compound": "C[C@]12CCC(=NOCCN)CC1C(=O)C[C@@H]1[C@@H]2CC[C@]2(C)C(=O)CC[C@@H]12.Cl (mixture of isomers) [compd 22b, hydrochloride, reference compound]",
    "result-unit": "µmol/kg",
    "ED (max)": 5.74
  },
  {
    "compound": "C=C1C[C@H]2[C@@H]3CCC(=O)[C@@]3(C)CC[C@@H]2[C@@]2(C)CCC(=NOCCN)C[C@]12O (mixture of isomers) [I-bq, hydrochloride]",
    "result-unit": "µmol/kg",
    "ED (max)": 15.7
  },
  {
    "compound": "C[C@H]1O[C@@H](O[C@H]2[C@@H](O)C[C@H](O[C@H]3[C@@H](O)C[C@H](O[C@H]4CC[C@@]5(C)[C@H](CC[C@@H]6[C@@H]5C[C@@H](O)[C@]5(C)[C@@H](C7=CC(=O)OC7)CC[C@]65O)C4)O[C@@H]3C)O[C@@H]2C)C[C@H](O)[C@@H]1O [digoxin, reference compound]",
    "result-unit": "µmol/kg",
    "ED (max)": 0.65
  }
]

Please look at the following compound next.
// C[C@]12CC[C@H]3[C@@H](CC[C@@]4(O)CC(=NOCCN)CC[C@]34C)[C@@H]1CCC2=O (mixture of isomers) : ED (max) value = 22.5

====

# System: anesthetized guinea-pig
# method: Inotropic effect and lethal dose, slow intravenous infusion (over 90 minutes) in anesthetized guinea-pig
# applied-conditions: duration of the inotropic effect
Where a name gives a salt, the structure may show the parent alone.
quantity-kind: % decrease from Emax after 20 min from the end of the infusion (%)
Answers are plain numbers, in %.

Example entries and their recorded answers appear below.
[
  {
    "molecule": "C[C@]12CCC(=NOCCN)CC1[C@@H](NC=O)C[C@@H]1[C@@H]2CC[C@]2(C)C(=O)CC[C@@H]12.O=C(O)/C=C/C(=O)O (stereo partly shown)",
    "result": 37
  },
  {
    "molecule": "CC12CCC3C(C(=O)CC4CC(=NOCCN)CCC43C)C1CCC2=O (mixture of isomers)",
    "result": 100
  },
  {
    "molecule": "C[C@]12CCC(=NOCCN)CC1C(=O)C[C@@H]1[C@@H]2CC[C@]2(C)C(=O)CC[C@@H]12.Cl (mixture of isomers) [compd 22b, reference compound]",
    "result": 100
  }
]

Please look at the following molecule next.
// CC1CC2C3CCC(=O)C3(C)CCC2C2(C)CCC(=NOCCN)CC12 (single isomer, unassigned) [I-ba, hydrochloride] : % decrease from Emax after 20 min from the end of the infusion value = 100
